- targetOrTestSystem: F508delCFTR (Homo sapiens, UniProt P13569, DEL508-508)
- Construct: expressed in transfected cells; host or cells: CFBE41o- human lung-derived epithelial cells (CFBE4lo-F508delCFTR-HRP), doxycycline-inducible
- Sequence (P13569 with tags, fused parts or gaps DEL508-508): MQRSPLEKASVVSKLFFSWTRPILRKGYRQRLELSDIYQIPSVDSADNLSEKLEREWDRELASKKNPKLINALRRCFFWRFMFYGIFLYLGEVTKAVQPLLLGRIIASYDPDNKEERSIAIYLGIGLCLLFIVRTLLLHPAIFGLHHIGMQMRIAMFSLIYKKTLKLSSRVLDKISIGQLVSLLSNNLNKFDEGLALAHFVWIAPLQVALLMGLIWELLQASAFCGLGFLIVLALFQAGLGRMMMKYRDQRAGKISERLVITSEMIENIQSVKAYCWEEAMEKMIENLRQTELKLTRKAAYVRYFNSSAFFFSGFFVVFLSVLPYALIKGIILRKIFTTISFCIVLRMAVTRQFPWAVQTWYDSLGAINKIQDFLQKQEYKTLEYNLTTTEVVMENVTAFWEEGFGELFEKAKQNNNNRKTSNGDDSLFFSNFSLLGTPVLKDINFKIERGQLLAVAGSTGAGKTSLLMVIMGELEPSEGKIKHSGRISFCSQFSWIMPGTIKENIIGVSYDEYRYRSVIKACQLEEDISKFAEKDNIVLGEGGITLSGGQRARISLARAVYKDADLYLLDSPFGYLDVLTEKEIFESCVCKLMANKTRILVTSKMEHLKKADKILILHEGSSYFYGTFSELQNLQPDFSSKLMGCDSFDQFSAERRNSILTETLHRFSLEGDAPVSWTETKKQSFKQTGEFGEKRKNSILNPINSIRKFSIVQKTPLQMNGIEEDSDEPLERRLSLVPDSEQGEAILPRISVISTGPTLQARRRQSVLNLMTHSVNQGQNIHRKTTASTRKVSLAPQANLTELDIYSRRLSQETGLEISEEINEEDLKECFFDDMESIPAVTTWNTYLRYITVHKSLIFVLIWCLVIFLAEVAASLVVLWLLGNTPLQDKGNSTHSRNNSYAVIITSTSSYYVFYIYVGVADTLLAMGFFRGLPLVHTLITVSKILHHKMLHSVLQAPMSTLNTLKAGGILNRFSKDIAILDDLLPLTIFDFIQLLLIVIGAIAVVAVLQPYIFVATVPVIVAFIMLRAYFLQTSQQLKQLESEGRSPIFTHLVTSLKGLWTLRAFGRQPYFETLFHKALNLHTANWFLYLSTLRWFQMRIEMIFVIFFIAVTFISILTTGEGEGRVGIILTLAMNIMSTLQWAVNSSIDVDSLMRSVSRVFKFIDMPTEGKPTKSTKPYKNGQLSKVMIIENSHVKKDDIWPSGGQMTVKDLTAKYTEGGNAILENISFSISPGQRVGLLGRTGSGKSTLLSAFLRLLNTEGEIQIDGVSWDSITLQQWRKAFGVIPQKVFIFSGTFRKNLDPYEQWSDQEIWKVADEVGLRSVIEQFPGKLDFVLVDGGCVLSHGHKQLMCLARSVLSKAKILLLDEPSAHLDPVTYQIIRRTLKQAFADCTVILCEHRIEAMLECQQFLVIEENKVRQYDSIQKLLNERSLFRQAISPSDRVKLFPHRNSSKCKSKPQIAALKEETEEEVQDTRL
- measurementDescription: Cell Surface Expression-Horse Radish Peroxidase (CSE-HRP) Assay;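 further: co-corrector and positive control are both the same reference corrector at 2 µM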
- Format: cell-based
- studyConditions: with co-corrector (2 μM of 3-[(2R,4R)-4-({[1-(2,2-difluoro-1,3-benzodioxol-5-yl)cyclopropyl]carbonyl}amino)-7-methoxy-3,4-dihydro-2H-chromen-2-yl]benzoic acid); maximum at any tested concentration, normalized to on-plate positive control
assayEndpoint: Maximum % activity (with co-corrector)

| compound | Maximum % activity (with co-corrector) |
| --- | --- |
| COc1ccc(Cl)cc1CN[C@@H]1[C@@H](C(C)(C)C)[C@H](C(=O)O)N(C(=O)C2CCCCC2)[C@@H]1c1ccccn1 (racemic) [III-61] | +++ (≥350) |
| COc1ccc(OC(F)(F)F)cc1CN[C@H]1[C@H](C(C)(C)C)[C@@H](C(=O)O)N(C(=O)OC(C)C)[C@H]1c1ccccc1C(C)C [II-560] | +++ (≥350) |
| COc1ccc(Cl)cc1CN[C@H]1[C@H](C(C)(C)C)[C@@H](C(=O)O)N(C(=O)OC(C)C)[C@H]1c1cccnc1N(C)C [II-568] | ++ (≥150 and <350) |
| COc1ncc(C(F)(F)F)cc1CN[C@H]1[C@H](C(C)(C)C)[C@@H](C(=O)O)N(C(=O)C2CCOCC2)[C@H]1c1ccccc1C(C)C [II-591] | +++ (≥350) |
| COc1ccc(C(C)(C)C)cc1CN[C@H]1[C@H](C(C)(C)C)[C@@H](C(=O)O)N(C(=O)c2cnn(-c3ccc(F)cc3)c2C)[C@H]1c1ccccc1 [II-354] | +++ (≥350) |

The value of Maximum % activity (with co-corrector) measured for the compound CCC(C)(O)CC(=O)N1[C@H](C(=O)O)[C@@H](C(C)(C)C)[C@H](NCc2cc(C(C)(C)C)ccc2OC)[C@@H]1c1ccccc1 (stereo partly drawn) [II-371] turned out to be +++ (≥350)

Documented Maximum % activity (with co-corrector) of COc1nc2ccccc2cc1CN[C@H]1[C@H](C(C)(C)C)[C@@H](C(=O)O)N(C(=O)C2CCOCC2)[C@H]1c1cccnc1N(C)C [II-600] : ++ (≥150 and <350)

Maximum % activity (with co-corrector) in this record for CC(C)(C)[C@@H]1[C@@H](Nc2cc(C(F)(F)F)cc(=O)[nH]2)[C@@H](c2ccccc2)N(C(=O)C2CCCCC2)[C@H]1C(=O)O (racemic) [III-23] : + (<150)

// COc1ccc(C(C)(C)C)cc1CN[C@H]1[C@H](C(C)(C)C)[C@@H](C(=O)O)N(C(=O)[C@H](C)[C@@H]2CCCCO2)[C@H]1c1ccccc1 (relative stereo) [II-454] : Maximum % activity (with co-corrector) value = +++ (≥350)

Lab note: COc1ncc(C(F)(F)F)cc1CN[C@H]1[C@H](C(C)(C)C)[C@@H](C(=O)O)N(C(=O)[C@H](C)OC)[C@H]1c1ccccc1C(C)C [II-590] gave Maximum % activity (with co-corrector) of +++ (≥350)

Recorded result, COc1ccc(C(C)(C)C)cc1CN[C@H]1[C@H](C(C)(C)C)[C@@H](C(=O)O)N(C(=O)[C@H](C)Oc2ccccc2)[C@H]1c1ccccc1 [II-319] , Maximum % activity (with co-corrector): +++ (≥350)

// sample COc1ncc(C(F)(F)F)cc1N[C@H]1[C@H](C(C)(C)C)[C@@H](C(=O)O)N(C(=O)[C@@H]2CCCC[C@H]2C(F)(F)F)[C@H]1c1cccnc1N(C)C [II-485] , its Maximum % activity (with co-corrector) was ++ (≥150 and <350)

In plain terms, CC(C)(C)[C@@H]1[C@@H](NCc2cc(C(F)(F)F)cnc2N)[C@@H](c2ccccc2)N(C(=O)C2CCCCC2)[C@H]1C(=O)O (racemic) [III-74] has a documented Maximum % activity (with co-corrector) of ++ (≥150 and <350)

For record COc1ncc(N2CCCC2)cc1CN[C@H]1[C@H](C(C)(C)C)[C@@H](C(=O)O)N(C(=O)OC(C)C)[C@H]1c1cccnc1N(C)C [II-577] the listed Maximum % activity (with co-corrector) is +++ (≥350)

Just so you know, measured Maximum % activity (with co-corrector) for COc1ncc(C2CCC2)cc1CN[C@H]1[C@H](C(C)(C)C)[C@@H](C(=O)O)N(C(=O)C2CCc3cc(F)ccc3O2)[C@H]1c1ccccc1 (stereo partly drawn) [II-476] came out at +++ (≥350)

Entry CN(C)c1ncc(C(F)(F)F)cc1CN[C@@H]1[C@@H](C(C)(C)C)[C@H](C(=O)O)N(C(=O)C2CCCCC2)[C@@H]1c1ccccc1 (racemic) [III-36] — recorded Maximum % activity (with co-corrector) = ++ (≥150 and <350)

// provenance: patent US20180099931A1
